Recorded melting point by entry

> print(dat)
                                   molecule  experimental.value
1   O=[N+]([O-])c1ccc(F)nc1Nc1ccc2c(c1)OCO2       161 to 162 °C
2  O=c1ccoc(C(OC2CCCCO2)c2ccccc2)c1OCc1ccccc1 (stereo not given)       115 to 116 °C
3  CC(=O)OCc1c(Br)cnc2c(NC(=O)c3c(Cl)cccc3Cl)cccc12       201 to 202 °C
4  C=C(CC(C)C(=O)O)C(=O)O (stereo not given)       106 to 108 °C
5  COC(CNC(=O)c1ccc(C(=O)N2CCN(c3ncccc3NC(C)C)CC2)nc1)OC       167 to 169 °C

Summary for this molecule, CCOc1cc2c(cc1S(=O)(=O)NC(=O)NC)C(CNC(=O)c1cc(Cl)ccc1OC)CCO2 (stereo not given) : melting point is 207 to 208 °C

Summary for this molecule, O=C(O)c1c(Oc2ccccc2)cccc1Oc1ccccc1 : melting point is 164 to 165 °C

Summary for this molecule, CCOC(=O)C(=CNc1ccc(OCC)c(C)n1)C(=O)OCC : melting point is 132 to 138 °C

Summary for this molecule, Nc1ccccc1NC(=O)CCCCCCNC(=O)c1cn2c3c(cccc13)CCC2 : melting point is 144 to 145 °C

Summary for this molecule, COc1ccc2c(c1)CC[C@@H]1[C@@H]2CC[C@@]2(C)[C@H]1CCC21CC(O)CO1 (stereo not given in full) : melting point is 95 to 97 °C

###

Recorded melting point by entry

// solved cases for melting point follow
> print(dat)
                                   compound  experimental.value
1  O=C(O)C(CCc1ccccc1)Oc1c(Br)cc(-c2ccc(-c3c(Cc4ccccc4)sc4ccccc34)cc2)cc1Br (stereo not given)         85 to 87 °C
2          CC(C)(C)OC(=O)N1CCN(CCC(N)=O)CC1         96 to 98 °C
3  O=C1NC(=O)C(Cc2ccc(OCc3cccc(-c4ccccc4)c3)cc2)S1 (stereo not given)       109 to 111 °C
4  CSc1nc(-c2ccc(F)cc2)c(-c2ccnc(OC(C)C)c2)[nH]1              141 °C

Summary for this compound, CCC1CCc2c(sc3cc(NC(C)=O)ccc3c2=O)C1 (stereo not given) : melting point is 243 °C

Summary for this compound, NC(=O)c1sc(Nc2ccccc2)c2c1CCc1cn[nH]c1-2 : melting point is 233 to 234 °C

Summary for this compound, CCn1c2ccc(C(=O)CC(C)=O)cc2c2cc(C(=O)c3ccc(F)cc3C)ccc21 : melting point is 132 °C

Summary for this compound, Cc1nc2cc(N)c(N)cc2n1C : melting point is 212 °C

Summary for this compound, CC(=O)N(CCCCC(=O)O)C(c1ccccc1)c1ccccc1 : melting point is 135 to 136 °C

Summary for this compound, CC1(C)CCCN(C(=O)CN(C(=O)CNC(=O)Nc2cccc(CO)c2)c2ccccc2)C1 : melting point is 248 °C

Summary for this compound, COc1ccc2c(c1)C(=O)N(c1ccc3ccn(CC#N)c3c1)C2 : melting point is 218 to 220 °C

Summary for this compound, CN(Cc1ccccc1)Cc1c(-c2ccc([N+](=O)[O-])cc2)sc2c1c(=O)c(C(=O)c1ccccc1)cn2Cc1c(F)cccc1F : melting point is 197 to 199 °C

###

Recorded melting point by entry
Write the number in °C without appending the unit.

> print(dat)
                         structure.notation      parameter  experimental.value
1  Cc1c(C(=O)Nc2ccc(N3CCC(CCO)CC3)c(C#N)c2)cnn1-c1ccc(F)cc1  melting point                 186

// moving on: another record for melting point
Summary for this compound, CCCCCCCCCCCCCCCCCCC(=O)Nc1ccc(O)cc1 : melting point is 138

###

PARAMETER: melting point

// solved cases for melting point follow
> print(dat)
                                   compound  experimental.value
1  N#Cc1cccc(C2=Nc3ccc(C4CC4)cc3NC(=O)C2)c1       204 to 209 °C
2         CC(C)(C)c1ccc(O)c(CNS(=O)(=O)O)c1       260 to 262 °C
3  CCCCCCCCCCCCC(C(=O)O)S(=O)(=O)c1ccc(OC)cc1 (stereo unspecified)               82 °C
4      C(OCC1CO1)C1CO1 (stereo unspecified)         90 to 93 °C
5  FC(F)(F)Oc1ccc2nc(Cc3ccc4c(c3)CCCC4)[nH]c2c1         88 to 90 °C
6  COc1nc(OC)nc(SC(C(=O)O)C(C)(C)c2ccccc2)n1 (stereo unspecified)       115 to 118 °C
7                CC(=O)Nc1nccc2cc3cccnc3n12       160 to 161 °C
8  COc1ccc(Cl)cc1-c1cccc2c1OC(CN)C2 (stereo unspecified)       149 to 152 °C

Summary for this compound, Cc1ccc2ncc(Oc3c(Cl)cc(NS(=O)(=O)c4cc(C)c(Cl)cc4Cl)cc3Cl)cc2c1 : melting point is 228 to 230 °C

Summary for this compound, COC(=O)C1=C(C)NC(C)=C(P2(=O)OC(C)CC(C)O2)C1c1cccc([N+](=O)[O-])c1 (stereo unspecified) : melting point is 225 to 226 °C

Summary for this compound, CCc1nnc2c(Cl)nc3cc(F)ccc3n12 : melting point is 203 to 205 °C

Summary for this compound, Clc1ccc(-c2cccc3[nH]c4c(c23)CCN(Cc2ccccc2)CC4)c(Cl)c1 : melting point is 194 to 196 °C

Summary for this compound, CC(C)(C)OC(=O)COc1ccc(NC(=O)NC(=O)c2ccc(C(N)=S)cc2)cc1 : melting point is 248 °C

Summary for this compound, CCOC(=O)c1ccc(C(=O)Nc2ccc3c(c2)N(C)C(=O)CCC3(C)C)cc1 : melting point is 174 to 175 °C

Summary for this compound, O=S(=O)(CCO)CCC(c1cc(F)ccc1F)S(=O)(=O)c1ccc(Cl)cc1 (stereo unspecified) : melting point is 111 to 113 °C

Summary for this compound, O=C(O)/C=C/C=C/C=C/C1=Cc2ccccc2OC1 : melting point is 206 to 208 °C

Summary for this compound, CCCCCCSc1ncnc2c1ncn2C1CC(F)C(CO)O1 (stereo unspecified) : melting point is 46 to 49 °C

Summary for this compound, COC(=O)c1ccc2c(c1)C(SCCO)c1ccccc1CC2 (stereo unspecified) : melting point is 107 to 109 °C

Summary for this compound, CCOC(=O)Cc1cnn(C)c1O : melting point is 104 to 105 °C

Summary for this compound, COc1ccc(C[C@H](CC(=O)N2CCOCC2)C(=O)OCc2ccccc2)cc1 : melting point is 77 to 79 °C

Summary for this compound, CS(=O)(=O)c1ccc(-n2nc(C(F)(F)F)cc2-c2ccc(-c3cnco3)cc2)cc1 : melting point is 178 to 180 °C

###

PARAMETER: melting point

// solved cases for melting point follow
> print(dat)
                                   molecule  experimental.value
1  COc1cc(OC)cc(N2CCN(C(=O)N(C)c3cc4ccccc4cc3OC)CC2)c1         83 to 85 °C
2  Cc1ccccc1-n1cnc(OC(C)C(=O)O)n1 (stereo unspecified)       151 to 153 °C
3  CSc1cc(-n2ncc(-c3ccc(S(C)(=O)=O)cc3)c(-c3ccc(F)cc3)c2=O)ccc1F       105 to 107 °C
4  O=C(Nc1ccc(Oc2ccnc(N3CCCC3)n2)c2ccccc12)c1ccccc1N1CCCC(F)C1 (stereo unspecified)       111 to 113 °C
5  CCOc1ccc(C2=NN(CCCCCCBr)C(=O)[C@H]3CCCC[C@@H]23)cc1OCC (relative stereo)         47 to 51 °C
6     COc1ccc(OC)c(C=CCN2CCc3nc(N)sc3CC2)c1       112 to 115 °C
7                CCCCOc1nsnc1OC[C@@H]1CCCN1        99 to 100 °C
8   Cc1ccc(C(=O)N2CCc3cc(C(=O)NO)ccc3C2)cc1       105 to 108 °C

Summary for this molecule, CC(C)N1CCN(CCN2CCC(c3cn(-c4ccc(F)cc4)c4cc(Cl)ccc34)CC2)C1=O : melting point is 134 °C

Summary for this molecule, Fc1ccccc1-c1n[nH]c(-c2ccccc2C(F)(F)F)n1 : melting point is 153 to 155 °C

Summary for this molecule, N#Cc1ccc(-c2ccc(F)cc2)nc1 : melting point is 149 °C

Summary for this molecule, CC1C(=O)N(C(=O)NS(=O)(=O)c2ccc(Cl)cc2)N1C(c1ccccc1)c1ccccc1 (stereo unspecified) : melting point is 124 to 129 °C

Summary for this molecule, CCn1c(=O)c2[nH]c(/C=C/c3ccc(OC)c(C)c3C)nc2n(CC)c1=O : melting point is > 280 °C

Summary for this molecule, COc1cccc(N2C(CO)=Cc3ccsc3S2(=O)=O)c1 : melting point is 141 to 143 °C

Summary for this molecule, COC(=O)c1cccc(C=NNc2ccc(C)cc2)c1O : melting point is 134 to 137 °C

Summary for this molecule, O=C(O)CCc1ccccc1C(=O)NCCc1ccccc1 : melting point is 106 to 108 °C

Summary for this molecule, CCOC(=O)c1c(C)nn(C)c1SCc1ccccc1 : melting point is 55 to 56 °C

Summary for this molecule, O=C(Nc1ccc(-n2nc(C(F)(F)F)cc2C(F)(F)F)cc1)c1cccnc1F : melting point is 110 to 112 °C

Summary for this molecule, COC1=CC2=CCC3C(CCC4(C)C(=O)CC(OC(C)=O)C34)C2(C)CC1 (stereo unspecified) : melting point is 209 °C

Summary for this molecule, COC(=O)c1cc2cc(C)ccc2nn1 : melting point is 170 to 172 °C

Summary for this molecule, COc1cc(S(C)(=O)=O)c(C)cc1OCC(=O)NCC(O)COc1ccccc1C (stereo unspecified) : melting point is 75 to 79 °C
